- EXPERIMENTAL PROTOCOL: Lipophilicity, log P of the compound
- Type: physicochemical
- RUN CONDITIONS: octanol/water

# SMILES RECORD, logP
measured = [
    ("NCCCCN(CCCN)C(=O)CCCCNC(=O)c1ccc(-c2c3nc(c(-c4ccc(C(=O)NCCCCC(=O)N(CCCN)CCCCN)cc4)c4ccc([nH]4)c(-c4ccc(C(=O)NCCCCC(=O)N(CCCN)CCCCN)cc4)c4nc(c(-c5ccc(C(=O)NCCCCC(=O)N(CCCN)CCCCN)cc5)c5ccc2[nH]5)C=C4)C=C3)cc1", -2.02),
    ("C=CC1=C(C)c2cc3[nH]c(cc4nc(cc5[nH]c(cc1n2)c(C)c5CCC(=O)NCCCCC(=O)N(CCCN)CCCCN)C(CCC(=O)NCCCCC(=O)N(CCCN)CCCCN)=C4C)c(C)c3C=C", -0.12),
    ("Cc1cc(C)c(-c2c3nc(c(-c4ccc(C(=O)NCCCCC(=O)N(CCCN)CCCCN)cc4)c4ccc([nH]4)c(-c4c(C)cc(C)cc4C)c4nc(c(-c5ccc(C(=O)NCCCCC(=O)N(CCCN)CCCCN)cc5)c5ccc2[nH]5)C=C4)C=C3)c(C)c1", 0.11),
    ("C=CC1=C(C)c2cc3[nH]c(cc4nc(cc5[nH]c(cc1n2)c(C)c5CCC(=O)NCCCCC(=O)N(CCCN)CCCCNCCCN)C(CCC(=O)NCCCCC(=O)N(CCCN)CCCCNCCCN)=C4C)c(C)c3C=C", -0.51),
    ("Cc1cc(C)c(-c2c3nc(c(-c4ccc(C(=O)NCCCCC(=O)N(CCCN)CCCCNCCCN)cc4)c4ccc([nH]4)c(-c4c(C)cc(C)cc4C)c4nc(c(-c5ccc(C(=O)NCCCCC(=O)N(CCCN)CCCCNCCCN)cc5)c5ccc2[nH]5)C=C4)C=C3)c(C)c1", 0.07),
    ("NCCCNCCCCN(CCCN)C(=O)CCCCNC(=O)c1ccc(-c2c3nc(c(-c4ccc(C(=O)NCCCCC(=O)N(CCCN)CCCCNCCCN)cc4)c4ccc([nH]4)c(-c4ccc(C(=O)NCCCCC(=O)N(CCCN)CCCCNCCCN)cc4)c4nc(c(-c5ccc(C(=O)NCCCCC(=O)N(CCCN)CCCCNCCCN)cc5)c5ccc2[nH]5)C=C4)C=C3)cc1", -2.83),
]
